test: Single-dose bioavailability of L-dC in the woodchuck; type: in vivo; conditions: plasma; L-dC 10 mg/kg single IV dose, mean
value type: clearance

{"molecule": "Nc1ccn([C@@H]2CC(O)[C@H](CO)O2)c(=O)n1 (stereo partly shown)", "value type": "clearance", "result value": "6.5 mL/min/kg"}

====

test: Single dose bioavailability of L-dC in the cynomologus monkey; type: in vivo, cynomolgus monkey; details: cynomolgus monkey, in vivo; L-dC 10 mg/kg single oral dose, n=3, mean; read-out: terminal t1/2 of L-dC (converted)

{"molecule": "Nc1ccn([C@@H]2CC(O)[C@H](CO)O2)c(=O)n1 (stereo partly shown)", "unit spec": "h", "half-life": 2.95}

====

tested on: wild-type HBV (ayw), cell line WT3/C1; assay: Antiviral testing in stable HepG2 cell lines, EPA of intracellular nucleocapsids; type: cell-based, hepatitis B virus; conditions: WT (ayw), cell line WT3/C1; mean ± SD of three to four experiments
Where a name gives a salt, the structure may show the parent alone.
value type: EC50 (nM)

{"compound": "Nc1ccn([C@@H]2C[C@@H](O)[C@H](CO)O2)c(=O)n1 [LdC-HCl]", "target or test system": "wild-type HBV (ayw), cell line WT3/C1", "unit spec": "nM", "result value": 180}

====

target: hepatitis B virus deoxyribonucleic acid (DNA) polymerase (Hepatitis B virus genotype D subtype ayw, UniProt P03156)
Sequence (P03156 whole entry): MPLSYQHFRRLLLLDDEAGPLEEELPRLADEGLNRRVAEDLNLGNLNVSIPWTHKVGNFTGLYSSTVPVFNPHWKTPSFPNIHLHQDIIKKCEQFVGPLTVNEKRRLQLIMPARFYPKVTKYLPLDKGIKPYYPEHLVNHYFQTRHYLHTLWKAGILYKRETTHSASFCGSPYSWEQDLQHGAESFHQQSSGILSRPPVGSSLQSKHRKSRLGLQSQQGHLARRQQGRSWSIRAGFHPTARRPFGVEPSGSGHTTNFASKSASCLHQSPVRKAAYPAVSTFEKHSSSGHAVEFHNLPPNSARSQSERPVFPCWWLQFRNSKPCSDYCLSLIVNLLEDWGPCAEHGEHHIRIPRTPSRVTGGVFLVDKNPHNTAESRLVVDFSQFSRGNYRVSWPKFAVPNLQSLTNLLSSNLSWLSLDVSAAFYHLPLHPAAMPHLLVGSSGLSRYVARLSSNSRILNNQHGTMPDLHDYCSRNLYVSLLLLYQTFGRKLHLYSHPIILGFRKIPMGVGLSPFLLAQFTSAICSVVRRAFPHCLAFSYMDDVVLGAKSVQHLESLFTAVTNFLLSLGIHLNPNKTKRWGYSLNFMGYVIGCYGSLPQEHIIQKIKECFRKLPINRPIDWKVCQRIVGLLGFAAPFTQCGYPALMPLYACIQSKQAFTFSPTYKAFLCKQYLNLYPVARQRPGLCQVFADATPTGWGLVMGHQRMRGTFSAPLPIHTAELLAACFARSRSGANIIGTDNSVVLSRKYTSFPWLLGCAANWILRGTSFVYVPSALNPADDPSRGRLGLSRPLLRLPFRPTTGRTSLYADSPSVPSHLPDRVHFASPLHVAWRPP
value type: IC50 (µM)

{"molecule": "O=c1ccn([C@@H]2C[C@@H](O)[C@H](COP(=O)(O)OP(=O)(O)OP(=O)(O)O)O2)c(=O)[nH]1 [L-dU-TP, β-L-2′-deoxyuridine 5′-triphosphate]", "unit spec": "µM", "result value": 5.26}

====

test: Single-dose bioavailability of L-dC in the woodchuck; format: in vivo; details: in vivo; L-dC 10 mg/kg single PO dose, mean; read-out: t1/2 of L-dC (converted)
value type: half-life (h)

{"molecule": "Nc1ccn([C@@H]2CC(O)[C@H](CO)O2)c(=O)n1 (stereo partly shown)", "value type": "half-life", "result value": 5.22}

====

Experiment: Log P study, octanol-1 / phosphate buffer
Settings: octanol-1 / 0.02 M phosphate buffer pH 7.2
Procedure: To 1 mL of this solution, 1 mL of octanol-1 (B) saturated with 0.02 M phosphate buffer solution (A) was added. The resultant mixture was shaken and centrifuged; three samples from each phase was collected and analyzed by HPLC, as shown in Table 10. The solution was then saturated with octanol-1 (B). […] The resultant mixture was shaken and centrifuged; three samples from each phase was collected and analyzed by HPLC, as shown in Table 11.
Counter-ions that a name gives are not always drawn.
value type: log P (octanol/water)

{"compound": "CC(=O)OC[C@@H]1O[C@H](n2ccc(N)nc2=O)C[C@H]1OC(C)=O", "result value": "−0.74"}
{"compound": "Nc1ccn([C@H]2C[C@H](O)[C@@H](CO)O2)c(=O)n1", "result value": "−1.41"}
{"compound": "CC(C)[C@H](N)C(=O)OC[C@@H]1O[C@H](n2ccc(N)nc2=O)C[C@H]1OC(=O)[C@@H](N)C(C)C [3′5′-dival-L-dC, hydrochloride]", "result value": "−0.86"}
{"compound": "CC(C)[C@H](N)C(=O)O[C@@H]1C[C@@H](n2ccc(N)nc2=O)O[C@H]1CO.Cl [3′-val-L-dC, 3′-valinyl ester hydrochloride of β-L-dC]", "result value": "−1.53"}
